pEC50: recorded values
# Test system: HIV-1 vectors that carry WT IN
# ASSAY_SUMMARY: Single-round HIV-1 replication antiviral assay, wild-type IN
# Assay type: cell-based
# CONDITION_SET: Human immunodeficiency virus 1, HOS, 48 h, read-out: EC50, antiviral potency, WT IN, VSV-g-pseudotyped HIV-1 luciferase vector with WT IN, HOS cells, 48 h
pEC50: −log10 of the molar value.

Past entries and their recorded results:
COCCCn1ccn2cc(C(=O)NCc3ccc(F)cc3F)c(=O)c(O)c2c1=O; ~8.70
COCCn1ccn2cc(C(=O)NCc3ccc(F)cc3F)c(=O)c(O)c2c1=O; ~8.70
O=C(NCc1ccc(F)cc1F)c1cn2ccn(CCCCO)c(=O)c2c(O)c1=O; ~7.77

Consider "O=C(NCc1ccc(F)cc1F)c1cn2ccn(CCCCCO)c(=O)c2c(O)c1=O" . Its measured pEC50 is ~7.96
